Reference source for all entries: patent US20240132589A1

# system_tested: T1, Human LILRB2 on stably transduced HEK293T cells (human, UniProt Q8N423 22-597)
# T1 construct: Lentiviral transduction (G&P Biosciences LTV2992); also called HEK293T-LILRB2; LILRB2-expressing HEK293T cells
# method: flow cytometry, HEK293T cells stably expressing human LILRB2
# Description: To confirm binding of LILRB2 antibodies, flow cytometry binding assays were performed using HEK293T cells stably expressing human LILRB2 (Example 3). […] The B2A-IgG1 and B2A-IgG4 chimeras bound the LILRB2-expressing HEK293T cells, with equivalent EC₅₀ values of 0.21 nM and 0.30 nM respectively. […]
measurement_name: BMAX [gMFI]

binder	measurement_name	value_measured
B2H4-24 (antibody, V domains shown, Humanized variant, human IgG4 / kappa) VH: EVQLVESGGDLATPGGSLRLSCAVSGFSLSTYAMSWVRQAPGKGLEWVGWIYNDGSTYYAAWAKGRFTISKDTSKTTVYLQMTSLRAEDTALYFCAREGDYIGYFNIWGQGTLVTVSS VL: DIQMTQSPSSVSASVGDRVTITCQASQSIGSNLAWYQQKPGKAPKLLIYAAATLASGVPLRFSGSGSGTDFTLTISNLQPEDSATYYCQSYVSGSSDVAFGGGTKVEIK	BMAX [gMFI]	10500 gMFI
B2H4-54 (antibody, V domains shown, Humanized variant, human IgG4 / kappa) VH: EVQLLESGGGLVQPGTSLTLSCAASGFSLSTYAMSWVRQAPGKGLEWIGWIYNDGSTYYAAWAKGRFTISKDTSKTTLYLQITSLRAEDTATYFCAREGDYIGYFNIWGQGTLVTVSS VL: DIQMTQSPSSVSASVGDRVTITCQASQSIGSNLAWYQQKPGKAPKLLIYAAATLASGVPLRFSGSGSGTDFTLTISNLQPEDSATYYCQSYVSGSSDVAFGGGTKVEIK	BMAX [gMFI]	10400 gMFI
B2H4-11 (antibody, V domains shown, Humanized variant, human IgG4 / kappa) VH: QVQLEESGGRVVQPGRSLRLSCAASGFSLSTYAMSWVRQAPGKGLEWIGWIYNDGSTYYAAWAKGRFTISKDTSKTTVFLQMNSLKPDDTATYFCAREGDYIGYFNIWGQGTLVTVSS VL: DIQMTQSPSSLSASVGDRVTITCQASQSIGSNLAWYQLKPGQRPKLLIYAAATLASGVPSRFKGSGSGTDFTLTISSLQSEDAATYYCQSYVSGSSDVAFGGGTEVVVK	BMAX [gMFI]	9840 gMFI
B2H4-45 (antibody, V domains shown, Humanized variant, human IgG4 / kappa) VH: EVQLLESGGRLVQPGTSLRLSCAVSGFSLSTYAMSWVRQAPGKGLEWIGWIYNDGSTYYAAWAKGRFTISKDTSKTTLYLQMNSLTVEDTATYFCAREGDYIGYFNIWGQGTLVTVSS VL: DVVMTQTPSSVSAALGGTVTIKCQASQSIGSNLAWYQLKPGQRPKLLIYAAATLASGGSSRFKGSGSGTDFTLTISSLEPADAATYYCQSYVSGSSDVAFGGGTEVVVK	BMAX [gMFI]	10500 gMFI
B2H4-25 (antibody, V domains shown, Humanized variant, human IgG4 / kappa) VH: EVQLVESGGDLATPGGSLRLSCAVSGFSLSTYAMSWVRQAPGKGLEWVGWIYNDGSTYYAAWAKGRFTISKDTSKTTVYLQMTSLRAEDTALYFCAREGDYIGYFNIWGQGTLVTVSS VL: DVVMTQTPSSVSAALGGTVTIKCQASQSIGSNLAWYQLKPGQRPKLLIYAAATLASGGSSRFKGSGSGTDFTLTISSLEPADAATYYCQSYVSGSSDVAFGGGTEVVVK	BMAX [gMFI]	10200 gMFI
